Test system: VDR:RXRa (NR concentration 270 nM, RXRa partner concentration 90 nM)
protocolNotes: PBM binding z-score (relative to random genomic background probes); higher = stronger binding; sequences stand for … in GC…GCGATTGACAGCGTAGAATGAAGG
Classify as follows. Reported PBM binding z-score greater than or equal to 1: 1.0. Reported PBM binding z-score below: 0.0.

For this sequence, is measured PBM binding z-score 1 or higher? AGAATGAGGGCAATGAGTTGATAGCACGGGTGGC
1.0

For this sequence, is measured PBM binding z-score 1 or higher? TCATATAAGTAAAAGGTGAAAGTCGGTGTGGTAA
1.0

For this sequence, is measured PBM binding z-score 1 or higher? CCGACAGGGGCAAAGGTTACCATACTCAGTACGA
1.0

For this sequence, is measured PBM binding z-score 1 or higher? CTACCAAGGTGAACCAGGTCGTTGATTACTATTC
1.0

For this sequence, is measured PBM binding z-score 1 or higher? AGAACGAGGGCACTGAGTTGATAGCACGGGTGGC
1.0

* * *

Below is a list of entries, each paired with its recorded PBM binding z-score value.
Tested on: PXR homodimer (NR concentration 270 nM)
protocolNotes: PBM binding z-score (relative to random genomic background probes); higher = stronger binding; sequences stand for … in GC…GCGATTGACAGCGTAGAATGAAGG

Examples with their reported PBM binding z-score follow.
residueCodes | PBM binding z-score
CGTACGAGGGCATGAGTTGATAGCAAATGCCGAT | 0.0171
TAGCCTAGGTCATGGGCCGGTATACCACGCGAAC | -0.488
CATACAGGGGCAGCTAGGCCAGAGTAGGGACGGC | -0.878
GCTGCTAGGTCAACTGCTGGTCAGCTAAAGCTCG | -0.956
CGTCCAAGGTCAATGTCAGTGAAAGAGACTCGAA | 1.18
GCTATTAGTTGATAGGGCAACCGAATGATTCTCG | -0.032
ACTCGGAGGACAAAGGTCAGAGTTACGCCAGTGA | 0.365
CGTCCACGGTCAAAGGTCAGTGAAGAGATGACGG | 0.288
CCAGACAGGTGAGAAGGTAACCCAGCCTCGATTA | 0.187
ATCGAAAGGTCGAAGGCGAGTATACCCACCCGAA | -0.132

# query: PBM binding z-score of entry CGTCAAAGTTCAAGATAACGTAACAGAAAGCAGC
3.04

# query: PBM binding z-score of entry TCATATAGGTAAAAGGTGATAGTCGGTGTGGTAA
0.988

* * *

Test system: THRa:RXRa (NR concentration 90 nM, RXRa partner concentration 90 nM)
protocolNotes: PBM binding z-score (relative to random genomic background probes); higher = stronger binding; sequences stand for … in GC…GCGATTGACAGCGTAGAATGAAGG
readout: PBM binding z-score
API doc: respond with a numeric literal and nothing else, no unit.

residueCodes | target | PBM binding z-score
ACAGACAGGTGAGTGGAGGTAACTCAGCTGGACG | THRa:RXRa (NR concentration 90 nM, RXRa partner concentration 90 nM) | 2.29
GCTATTAGTTGGAAGGGCAACCGAATGATTCTCG | THRa:RXRa (NR concentration 90 nM, RXRa partner concentration 90 nM) | -0.126
CCTTACGGGTCACTGACAGGTTAGAGCATTTGGA | THRa:RXRa (NR concentration 90 nM, RXRa partner concentration 90 nM) | 2.68
AGTCAAAGTTCACTAGATAACGTAAGATTCAGCT | THRa:RXRa (NR concentration 90 nM, RXRa partner concentration 90 nM) | 1.46
CCAGACAGGTGAAAGGTAACCCAGTCTGGTACGC | THRa:RXRa (NR concentration 90 nM, RXRa partner concentration 90 nM) | 0.935

Now let's try a different one.
# query: PBM binding z-score of entry CATCCAAGGTCAGCAGGTCAGTGAAAGCGACGTG
3.89

* * *

Tested on: RARg homodimer (NR concentration 270 nM)
protocolNotes: PBM binding z-score (relative to random genomic background probes); higher = stronger binding; sequences stand for … in GC…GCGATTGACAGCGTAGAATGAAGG
Classify as follows. Reported PBM binding z-score greater than or equal to 2: condition met. Reported PBM binding z-score below: condition not met.

Known results for sequences:
residueCodes | class
TCGTGTAGATCAAAGGTTAAGAAAGCCGAAGCCT | condition not met
TCTGCTGGGTCAGTTGGTCAGCTAACGAGCTGCC | condition met

For this sequence, is measured PBM binding z-score 2 or higher? GTAACGAGGGCAAGTTGATAGCAGAGTTTGATGG
condition not met

For this sequence, is measured PBM binding z-score 2 or higher? CCTACTGGGCCATTCAGGGGTCATTGATCATATG
condition met

For this sequence, is measured PBM binding z-score 2 or higher? ACTATTAGTTGAGACTAGGGCAACCGATAGGTTG
condition not met

For this sequence, is measured PBM binding z-score 2 or higher? TCTTATAGATCAACAGGAGGTTAAGAAAGATCGA
condition not met

For this sequence, is measured PBM binding z-score 2 or higher? CCTCCTGGGCCACGAAAGGTCATTGATTCAGTGA
condition met

For this sequence, is measured PBM binding z-score 2 or higher? CGAACGCGGGCATGAGTTGATAGCAAATGCCGAT
condition not met

For this sequence, is measured PBM binding z-score 2 or higher? TCAGACAGGTGAAGGTAACTCCGGTACGCAGTCG
condition not met

For this sequence, is measured PBM binding z-score 2 or higher? ACTAGCCGGCCAAGGGTCACTCAAGATTAGTCCG
condition met

For this sequence, is measured PBM binding z-score 2 or higher? CCGACTGGGGCCAGGTTACCATAACGCACAGCCA
condition not met

For this sequence, is measured PBM binding z-score 2 or higher? TCATATAGGTCAATGCTAGGTGAAAGTCCGATCT
condition met

* * *

Below is a list of entries, each paired with its recorded PBM binding z-score value.
Test system: PPARg DBDmut IVT, anti-PPARg (DBD mutation: PPARg1 K132A/R137A, NR concentration 270 nM)
protocolNotes: PBM binding z-score (relative to random genomic background probes); higher = stronger binding; sequences stand for … in GC…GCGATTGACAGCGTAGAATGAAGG

residueCodes | result
TCTCGTAGATCAGCAGGTTAAGAAAGCTGGCCAA | -0.513
CCTAGCAGGCCAGGGTCACTCGAGCATTTCGCTT | -1.77
CCTGCTAGGTCATGGTCAGCTATTCTACAGTATG | -0.223
CCTGCTAGGTCAATGGTCAGCTGAAGCAGCTCGC | -0.168

# query: PBM binding z-score of entry ATCGAAAGGTCGTGGGGTGAGTATACAGAAAGGC
1.78

# query: PBM binding z-score of entry GCTTACGTGTCAAAGGTTATAGCATGAATAGAAT
0.944

# query: PBM binding z-score of entry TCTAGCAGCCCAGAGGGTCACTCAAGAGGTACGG
-0.961

# query: PBM binding z-score of entry AGAACGAGGGCGATGAGTTGATAGCACGGGTGGC
-0.338

# query: PBM binding z-score of entry CCTGGTAGGTCAATGGTCAGCTAAAGCAGCTCGC
-0.453

# query: PBM binding z-score of entry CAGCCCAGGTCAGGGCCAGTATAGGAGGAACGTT
-1.33

# query: PBM binding z-score of entry TCGGCTAGGTCAACGATGGTCAGCTAATCTGCTA
-0.603

# query: PBM binding z-score of entry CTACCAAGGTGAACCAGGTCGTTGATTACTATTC
0.258

# query: PBM binding z-score of entry ACTAGCATGCCAAGGGTCACTCAAGATTAGTCCG
0.469

# query: PBM binding z-score of entry GCTGCTAGGTCAGGTTGGTCAGCTAGCGGGTACG
-1.03

# query: PBM binding z-score of entry TCTAGCAGGCTAGAGGGTCACTCAAGAGGTACGG
-0.574

# query: PBM binding z-score of entry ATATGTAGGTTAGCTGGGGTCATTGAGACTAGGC
1.29

# query: PBM binding z-score of entry TCTTGTAGAGCAACAGGAGGTTAAGAAAGATCGA
0.0668

# query: PBM binding z-score of entry TCTGCTAGGTCAACGATGGTCAGCTAGTCTGCTA
-0.961

# query: PBM binding z-score of entry TCGAGTAGGTTAGCCGGGGCATTCAGCCAACATA
-1.01

# query: PBM binding z-score of entry AGCTCTAGGTAACAAGTTCAGTGAAAGAGAGGAC
0.272

# query: PBM binding z-score of entry CGTGCAAGGTCAAAGGTCAGTGAAGAGATGACGG
0.658

# query: PBM binding z-score of entry CAAACTAGGTCAAGGACAAAGTCGGTTTGTGCCA
1.42
